For each of the molecules below, state its Kd.
Biological target: β-catenin (Homo sapiens, UniProt P35222)
Sequence (P35222 1-781): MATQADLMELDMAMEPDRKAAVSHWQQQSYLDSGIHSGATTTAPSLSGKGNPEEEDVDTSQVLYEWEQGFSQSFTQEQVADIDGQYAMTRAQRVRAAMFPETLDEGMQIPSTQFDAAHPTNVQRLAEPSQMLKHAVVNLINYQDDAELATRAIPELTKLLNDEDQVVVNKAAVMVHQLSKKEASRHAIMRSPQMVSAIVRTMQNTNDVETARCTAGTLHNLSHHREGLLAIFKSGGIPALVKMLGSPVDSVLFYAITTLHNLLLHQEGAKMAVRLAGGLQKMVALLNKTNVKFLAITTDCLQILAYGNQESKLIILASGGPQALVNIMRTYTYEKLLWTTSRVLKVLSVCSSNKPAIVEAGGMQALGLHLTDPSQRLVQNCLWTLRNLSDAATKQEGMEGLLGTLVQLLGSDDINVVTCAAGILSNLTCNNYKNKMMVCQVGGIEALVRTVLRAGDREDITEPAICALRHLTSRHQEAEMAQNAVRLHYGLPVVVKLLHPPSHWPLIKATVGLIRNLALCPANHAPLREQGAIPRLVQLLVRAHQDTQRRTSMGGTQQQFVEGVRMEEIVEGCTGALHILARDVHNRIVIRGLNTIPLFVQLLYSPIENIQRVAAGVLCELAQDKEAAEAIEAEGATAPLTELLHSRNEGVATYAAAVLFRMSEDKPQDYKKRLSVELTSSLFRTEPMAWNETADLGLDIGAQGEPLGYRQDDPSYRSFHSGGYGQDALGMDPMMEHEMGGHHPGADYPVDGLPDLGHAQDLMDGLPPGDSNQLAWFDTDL
Test: KD50 measurement using competitive fluorescence polarization (FP) with labelled TCF4
Type: binding
Settings: fluorescence polarization, β-catenin; read-out: β-Cat FP KD
Where a SMILES comes first, the peptide text is derived from it.

Enter reported Kd observed with β-catenin (Homo sapiens, UniProt P35222) for CC[C@H](C)[C@@H]1NC(=O)[C@H](CC(C)C)NC(=O)[C@H](Cc2ccccc2)NC(=O)[C@H](Cc2c[nH]c3ccccc23)NC(=O)[C@@H](N)CCCCNC(=O)C[C@@H](C(=O)O)NC(=O)[C@H](Cc2c[nH]c3ccccc23)NC(=O)[C@H](C)NC(=O)[C@H](CS)NC1=O [compound 168] (HELM PEPTIDE1{K.W.F.L.I.C.A.W.D}$PEPTIDE1,PEPTIDE1,1:R3-9:R3$$$V2.0) 1 to 10 µM

Enter reported Kd observed with β-catenin (Homo sapiens, UniProt P35222) for CC[C@H](C)[C@H](NC(=O)[C@H](CC(C)C)NC(=O)[C@H](Cc1ccccc1)NC(=O)[C@H](Cc1c[nH]c2ccccc12)NC(=O)[C@@H](N)CCSC)C(=O)N[C@@H](CCCCN)C(=O)N[C@@H](Cc1ccccc1)C(=O)N[C@@H](Cc1ccc(O)cc1)C(=O)NCC(=O)O [compound 151] (H-MWFLIKFYG-OH) 0.4 to 1 µM

Enter reported Kd observed with β-catenin (Homo sapiens, UniProt P35222) for CC[C@H](C)[C@@H]1NC(=O)[C@H](CC(C)C)NC(=O)[C@H]([C@@H](C)CC)NC(=O)[C@H](Cc2c[nH]c3ccccc23)NC(=O)[C@@H](N)CCCCNC(=O)C[C@@H](C(=O)O)NC(=O)[C@H](Cc2c[nH]c3ccccc23)NC(=O)[C@H](Cc2ccccc2)NC(=O)[C@H](CS)NC1=O [compound 120] (HELM PEPTIDE1{K.W.I.L.I.C.F.W.D}$PEPTIDE1,PEPTIDE1,1:R3-9:R3$$$V2.0) > 30 µM
